Source of measurements: patent US9376423B2

target: UniProt Q02156; assay: FRET based LANCE Ultra kinase assay; assay type: biochemical; details: read-out: Log IC50 (converted)
Sequence (Q02156 whole entry): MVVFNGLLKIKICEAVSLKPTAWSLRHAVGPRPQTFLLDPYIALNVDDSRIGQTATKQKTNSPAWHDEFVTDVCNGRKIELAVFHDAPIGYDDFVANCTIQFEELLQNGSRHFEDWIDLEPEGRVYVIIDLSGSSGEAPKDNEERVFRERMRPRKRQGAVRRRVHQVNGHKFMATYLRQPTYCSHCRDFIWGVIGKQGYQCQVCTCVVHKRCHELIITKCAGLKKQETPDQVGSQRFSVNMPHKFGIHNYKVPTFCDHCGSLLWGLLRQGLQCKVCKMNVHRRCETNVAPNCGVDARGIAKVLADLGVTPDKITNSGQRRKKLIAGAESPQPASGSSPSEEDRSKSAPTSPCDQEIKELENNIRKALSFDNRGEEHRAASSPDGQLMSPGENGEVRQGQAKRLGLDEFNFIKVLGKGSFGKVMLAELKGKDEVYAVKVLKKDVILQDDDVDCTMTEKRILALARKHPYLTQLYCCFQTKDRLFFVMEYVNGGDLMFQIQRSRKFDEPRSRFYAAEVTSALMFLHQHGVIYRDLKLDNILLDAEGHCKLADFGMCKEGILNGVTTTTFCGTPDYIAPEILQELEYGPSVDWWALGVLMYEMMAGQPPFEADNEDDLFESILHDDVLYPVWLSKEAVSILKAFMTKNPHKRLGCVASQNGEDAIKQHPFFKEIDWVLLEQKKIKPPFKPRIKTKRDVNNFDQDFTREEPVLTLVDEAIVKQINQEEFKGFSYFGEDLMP
measurement_name: IC50 (nM)

                                   compound  unit_name  recorded_measurement
0  NC(C(=O)NCc1ccc(F)cc1)[C@H]1CC[C@H](C(=O)Nc2ccncc2)CC1 (stereo partly drawn) [Compound 12]         nM                  2370
1  NC(CNC(=O)C1(c2ccc(F)cc2)CC1)[C@H]1CC[C@H](C(=O)Nc2ccncc2)CC1 (stereo partly drawn) [Compound 3]         nM                   146
2  NC(C(=O)NC1CCCc2ccccc21)[C@H]1CC[C@H](C(=O)Nc2ccncc2)CC1 (stereo partly drawn) [Compound 11]         nM                  3090
3  NC(C(=O)NC1COc2ccccc21)[C@H]1CC[C@H](C(=O)Nc2ccncc2)CC1 (stereo partly drawn) [Compound 10]         nM                  2020
4  CC(C)(C(=O)NCC(N)[C@H]1CC[C@H](C(=O)Nc2ccncc2)CC1)c1cccs1 (stereo partly drawn) [Compound 7]         nM                   280
5  NC(CNC(=O)C1(c2ccc(F)cc2Cl)CCCC1)[C@H]1CC[C@H](C(=O)Nc2ccncc2)CC1 (stereo partly drawn) [Compound 4]         nM                   121
6  CC(C)(C(=O)NCC(N)[C@H]1CC[C@H](C(=O)Nc2ccncc2)CC1)c1ccc(Cl)cc1.Cl (stereo partly drawn) [Compound 9]         nM                    40
7  Cl.NC(CNC(=O)C1(c2ccc(F)cc2)CCCC1)[C@H]1CC[C@H](C(=O)Nc2ccncc2)CC1 (stereo partly drawn) [Compound 5]         nM                  42.7
8  NC(CNC(=O)C1CCc2cc(Cl)ccc21)[C@H]1CC[C@H](C(=O)Nc2ccncc2)CC1 (stereo partly drawn) [Compound 8]         nM                   359

###

# Ki annotations
target: PKCδ (Homo sapiens, UniProt Q05655); construct: purchased Invitrogen (Carlsbad, Calif., USA); assay: Inhibition of novel PKCδ (Example 4); assay type: biochemical; settings: n = 3
Sequence (Q05655 whole entry): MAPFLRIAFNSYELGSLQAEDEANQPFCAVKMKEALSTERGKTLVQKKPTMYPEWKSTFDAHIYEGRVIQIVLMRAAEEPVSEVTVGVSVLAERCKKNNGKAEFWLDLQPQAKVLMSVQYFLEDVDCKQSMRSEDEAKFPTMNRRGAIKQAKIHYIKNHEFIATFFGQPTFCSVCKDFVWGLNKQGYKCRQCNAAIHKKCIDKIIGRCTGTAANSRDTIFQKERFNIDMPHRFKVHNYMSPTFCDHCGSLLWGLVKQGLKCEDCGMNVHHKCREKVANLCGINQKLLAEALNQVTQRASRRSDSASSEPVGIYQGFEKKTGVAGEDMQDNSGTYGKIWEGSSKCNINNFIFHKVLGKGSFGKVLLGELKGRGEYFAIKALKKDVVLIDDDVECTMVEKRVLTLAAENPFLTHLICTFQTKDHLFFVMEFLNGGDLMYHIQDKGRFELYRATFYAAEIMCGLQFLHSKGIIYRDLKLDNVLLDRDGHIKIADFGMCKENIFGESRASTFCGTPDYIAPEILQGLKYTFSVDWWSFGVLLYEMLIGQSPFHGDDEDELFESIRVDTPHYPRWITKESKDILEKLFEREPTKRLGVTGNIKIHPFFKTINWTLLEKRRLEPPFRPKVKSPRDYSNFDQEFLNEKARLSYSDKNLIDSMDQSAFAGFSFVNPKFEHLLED
measurement_name: Ki (nM)

>>> df
                                   compound                        target_entity  recorded_measurement
0  Cl.NC(CNC(=O)C1(c2ccc(F)cc2)CCCC1)[C@H]1CC[C@H](C(=O)Nc2ccncc2)CC1 (some centres unmarked)  PKCδ (Homo sapiens, UniProt Q05655)                   125
1  CC(C)(C(=O)NCC(N)[C@H]1CC[C@H](C(=O)Nc2ccncc2)CC1)c1ccc(Cl)cc1.Cl (some centres unmarked)  PKCδ (Homo sapiens, UniProt Q05655)                  66.5

###

target: UniProtKB Q02156; assay: FRET based LANCE Ultra kinase assay; type: biochemical
measurement_name: IC50 (µM)

In [3]: df
Out[3]:
                                   molecule  measurement_name  recorded_measurement
0  NC(CC(=O)NCC1(c2ccc(Cl)cc2)CC1)[C@H]1CC[C@H](C(=O)Nc2ccncc2)CC1 (relative stereo) [Compound 2]              IC50                  3.24
